- Protocol details: activity coefficient (dimensionless); of the first substance listed, at infinite dilution; xn = mol fraction of the nth substance listed
- Applied conditions: 323.15 K; Liquid; Chromatography; x1 = 0
# key: entry, value: activity coefficient
Endpoint name: activity coefficient

>  <Molecule>
CCC(C)=O [butanone] + CCCOC[n+]1ccn(Cc2ccccc2)c1.F[B-](F)(F)F

>  <Value measured>
1.06

$$$$
>  <Molecule>
CCC[N+](=O)[O-] [1-nitropropane] + CCCCCCCCn1cc[n+](COCCC)c1C.O=S(=O)([N-]S(=O)(=O)C(F)(F)F)C(F)(F)F

>  <Value measured>
0.54

$$$$
>  <Molecule>
CC1CCCC1 [methylcyclopentane] + Cn1cc[n+](COCCCOC[n+]2ccn(C)c2)c1.O=S(=O)([N-]S(=O)(=O)C(F)(F)F)C(F)(F)F.O=S(=O)([N-]S(=O)(=O)C(F)(F)F)C(F)(F)F

>  <Value measured>
16.4

$$$$
>  <Molecule>
CCC(=O)CC [pentan-3-one] + CCCOC[n+]1ccn(C)c1.N#C[N-]C#N

>  <Value measured>
2.14

$$$$
>  <Molecule>
c1ccccc1 [benzene] + CCCCCCCCn1cc[n+](COCCC)c1C.O=S(=O)([N-]S(=O)(=O)C(F)(F)F)C(F)(F)F

>  <Value measured>
0.6

$$$$

====

- Protocol details: activity coefficient (dimensionless); of the first substance listed, at infinite dilution; xn = mol fraction of the nth substance listed
- Applied conditions: 323.15 K; Liquid; Chromatography; x1 = 0

>  <Compound>
c1ccsc1 [thiophene] + Cn1cc[n+](COCCCOC[n+]2ccn(C)c2)c1.N#C[N-]C#N.N#C[N-]C#N

>  <activity coefficient>
1.58

$$$$
>  <Compound>
CCC(=O)CC [pentan-3-one] + CCCOC[n+]1ccn(C)c1.F[B-](F)(F)F

>  <activity coefficient>
3.34

$$$$
>  <Compound>
ClCCl [dichloromethane] + CN(C)c1cc[n+](COCCCOC[n+]2ccc(N(C)C)cc2)cc1.O=S(=O)([N-]S(=O)(=O)C(F)(F)F)C(F)(F)F.O=S(=O)([N-]S(=O)(=O)C(F)(F)F)C(F)(F)F

>  <activity coefficient>
0.52

$$$$
>  <Compound>
ClC(Cl)(Cl)Cl [tetrachloromethane] + CCCOC[n+]1ccc(N(C)C)cc1.O=S(=O)([N-]S(=O)(=O)C(F)(F)F)C(F)(F)F

>  <activity coefficient>
2.01

$$$$
>  <Compound>
Cc1cccc(C)c1 [1,3-dimethylbenzene] + CCCOC[n+]1ccn(C)c1.N#C[N-]C#N

>  <activity coefficient>
6.24

$$$$
>  <Compound>
CCCCO [butan-1-ol] + CCCCCCCCn1cc[n+](COCCC)c1C.O=S(=O)([N-]S(=O)(=O)C(F)(F)F)C(F)(F)F

>  <activity coefficient>
5.47

$$$$
>  <Compound>
C1CCCCCC1 [cycloheptane] + CCCOC[n+]1ccn(C)c1.N#C[N-]C#N

>  <activity coefficient>
79.2

$$$$
>  <Compound>
CCO [ethanol] + CCCOC[n+]1ccn(C)c1.F[B-](F)(F)F

>  <activity coefficient>
2.1

$$$$
>  <Compound>
C=CCCCC [hex-1-ene] + CCCCCCCCn1cc[n+](COCCC)c1C.N#C[N-]C#N

>  <activity coefficient>
4.34

$$$$
>  <Compound>
ClC(Cl)Cl [trichloromethane] + CCCOC[n+]1ccc(N(C)C)cc1.O=S(=O)([N-]S(=O)(=O)C(F)(F)F)C(F)(F)F

>  <activity coefficient>
0.71

$$$$

====

- Protocol details: activity coefficient (dimensionless); of the first substance listed, at infinite dilution; xn = mol fraction of the nth substance listed
- Applied conditions: 333.15 K; Liquid; Chromatography; x1 = 0

>  <Compound>
CC#N [acetonitrile] + CCCCCCCCn1cc[n+](COCCC)c1C.O=S(=O)([N-]S(=O)(=O)C(F)(F)F)C(F)(F)F

>  <activity coefficient>
0.46

$$$$
>  <Compound>
CO [methanol] + CCCOC[n+]1ccn(C)c1.O=S(=O)([N-]S(=O)(=O)C(F)(F)F)C(F)(F)F

>  <activity coefficient>
1.12

$$$$
>  <Compound>
C[N+](=O)[O-] [nitromethane] + Cn1cc[n+](COCCCOC[n+]2ccn(C)c2)c1.O=S(=O)([N-]S(=O)(=O)C(F)(F)F)C(F)(F)F.O=S(=O)([N-]S(=O)(=O)C(F)(F)F)C(F)(F)F

>  <activity coefficient>
0.31

$$$$
>  <Compound>
CC(C)OC(C)C [diisopropyl ether] + CCCOC[n+]1ccn(Cc2ccccc2)c1.N#C[N-]C#N

>  <activity coefficient>
12.1

$$$$

====

- Protocol details: activity coefficient (dimensionless); of the first substance listed, at infinite dilution; xn = mol fraction of the nth substance listed
- Applied conditions: 333.15 K; Liquid; Chromatography; x1 = 0
Record yes (1) whenever activity coefficient is at 60 or higher; record no (0) when lower.

>  <Compound>
CCCCCCCCCC [decane] + Cn1cc[n+](COCCCOC[n+]2ccn(C)c2)c1.O=S(=O)([N-]S(=O)(=O)C(F)(F)F)C(F)(F)F.O=S(=O)([N-]S(=O)(=O)C(F)(F)F)C(F)(F)F

>  <Discrete label>
yes (1)

$$$$
>  <Compound>
ClC(Cl)(Cl)Cl [tetrachloromethane] + CCCOC[n+]1ccn(C)c1.N#C[N-]C#N

>  <Discrete label>
no (0)

$$$$
>  <Compound>
CO [methanol] + CCCOC[n+]1ccc(N(C)C)cc1.O=S(=O)([N-]S(=O)(=O)C(F)(F)F)C(F)(F)F

>  <Discrete label>
no (0)

$$$$
>  <Compound>
Cc1cccc(C)c1 [1,3-dimethylbenzene] + Cn1cc[n+](COCCCOC[n+]2ccn(C)c2)c1.O=S(=O)([N-]S(=O)(=O)C(F)(F)F)C(F)(F)F.O=S(=O)([N-]S(=O)(=O)C(F)(F)F)C(F)(F)F

>  <Discrete label>
no (0)

$$$$
>  <Compound>
CCCCCCCCCCCCC [tridecane] + CCCOC[n+]1ccc(N(C)C)cc1.O=S(=O)([N-]S(=O)(=O)C(F)(F)F)C(F)(F)F

>  <Discrete label>
yes (1)

$$$$
>  <Compound>
Cc1cccc(C)c1 [1,3-dimethylbenzene] + CCCOC[n+]1ccn(C)c1.O=S(=O)([N-]S(=O)(=O)C(F)(F)F)C(F)(F)F

>  <Discrete label>
no (0)

$$$$
>  <Compound>
ClC(Cl)Cl [trichloromethane] + CCCOC[n+]1ccc(N(C)C)cc1.O=S(=O)([N-]S(=O)(=O)C(F)(F)F)C(F)(F)F

>  <Discrete label>
no (0)

$$$$

====

Examples of molecules with documented activity coefficient follow.
- Protocol details: activity coefficient (dimensionless); of the first substance listed, at infinite dilution; xn = mol fraction of the nth substance listed
- Applied conditions: 323.15 K; Liquid; Chromatography; x1 = 0

>  <Molecule>
CCCO [propan-1-ol] + CCCOC[n+]1ccn(C)c1.F[B-](F)(F)F

>  <activity coefficient>
3.1

$$$$
>  <Molecule>
CC(C)OC(C)C [diisopropyl ether] + CCCOC[n+]1ccn(C)c1.O=S(=O)([N-]S(=O)(=O)C(F)(F)F)C(F)(F)F

>  <activity coefficient>
4.69

$$$$
>  <Molecule>
Cc1ccccc1C [1,2-dimethylbenzene] + CCCCCCCCn1cc[n+](COCCCOC[n+]2ccn(CCCCCCCC)c2C)c1C.O=S(=O)([N-]S(=O)(=O)C(F)(F)F)C(F)(F)F.O=S(=O)([N-]S(=O)(=O)C(F)(F)F)C(F)(F)F

>  <activity coefficient>
0.68

$$$$
>  <Molecule>
c1ccccc1 [benzene] + N#C[N-]C#N.N#C[N-]C#N.c1ccc(Cn2cc[n+](COCCCOC[n+]3ccn(Cc4ccccc4)c3)c2)cc1

>  <activity coefficient>
3.09

$$$$
>  <Molecule>
CCCC(C)=O [pentan-2-one] + CCCCCCCCn1cc[n+](COCCCOC[n+]2ccn(CCCCCCCC)c2C)c1C.N#C[N-]C#N.N#C[N-]C#N

>  <activity coefficient>
0.8

$$$$
>  <Molecule>
CC(C)O [propan-2-ol] + CCCOC[n+]1ccn(C)c1.O=S(=O)([N-]S(=O)(=O)C(F)(F)F)C(F)(F)F

>  <activity coefficient>
1.9

$$$$
>  <Molecule>
CCCCCC [hexane] + CCCOC[n+]1ccn(C)c1.O=S(=O)([N-]S(=O)(=O)C(F)(F)F)C(F)(F)F

>  <activity coefficient>
15.9

$$$$

====

- Protocol details: activity coefficient (dimensionless); of the first substance listed, at infinite dilution; xn = mol fraction of the nth substance listed
- Applied conditions: 333.15 K; Liquid; Chromatography; x1 = 0
# activity coefficient listing for each entry below

>  <Molecule>
CCCCCCC [heptane] + CCCCCCCCn1cc[n+](COCCCOC[n+]2ccn(CCCCCCCC)c2C)c1C.O=S(=O)([N-]S(=O)(=O)C(F)(F)F)C(F)(F)F.O=S(=O)([N-]S(=O)(=O)C(F)(F)F)C(F)(F)F

>  <activity coefficient>
4.51

$$$$
>  <Molecule>
ClCCl [dichloromethane] + CCCOC[n+]1ccn(C)c1.F[B-](F)(F)F

>  <activity coefficient>
1.16

$$$$
>  <Molecule>
CCC(=O)CC [pentan-3-one] + CCCOC[n+]1ccn(Cc2ccccc2)c1.F[B-](F)(F)F

>  <activity coefficient>
1.74

$$$$
>  <Molecule>
Cc1ccccc1 [toluene] + Cn1cc[n+](COCCCOC[n+]2ccn(C)c2)c1.O=S(=O)([N-]S(=O)(=O)C(F)(F)F)C(F)(F)F.O=S(=O)([N-]S(=O)(=O)C(F)(F)F)C(F)(F)F

>  <activity coefficient>
1.48

$$$$
>  <Molecule>
CC(C)CO [2-methyl-1-propanol] + CCCOC[n+]1ccn(C)c1.F[B-](F)(F)F

>  <activity coefficient>
3.95

$$$$
